Molecular target: Quinolone resistance protein NorA (Staphylococcus aureus) (UniProt P0A0J7)
Experiment: Inhibition of NorA in Staphylococcus aureus 1199B assessed as minimum concentration required to effectively reduce ciprofloxacin MIC by four fold by broth checkerboard microdilution method
OBSERVABLE: MEC (µg/mL)
Numbers only, in µg/mL.

// below: answered molecules
COC(=O)[C@H](CC(C)C)NC(=O)/C=C/C1=C(Cl)c2ccccc2CC1 ... 12.5
COC(=O)[C@H]1CCCN1C(=O)/C=C/C1=C(Cl)c2ccccc2CC1 ... 12.5
CC[C@@H](C)[C@H](NC(=O)/C=C/C1=C(Cl)c2ccccc2CC1)C(=O)OC ... 12.5
COC(=O)C(C)(C)NC(=O)/C=C/C1=C(Cl)c2ccccc2CC1 ... 12.5
COC(=O)[C@H](Cc1c[nH]c2ccccc12)NC(=O)/C=C/C1=C(Cl)c2ccccc2CC1 ... 1.5

List MEC for every entry below, keeping the order given.
1. COC(=O)[C@@H](NC(=O)/C=C/C1=C(Cl)c2ccccc2CC1)C(C)C
2. COC(=O)[C@@H]1CCCN1C(=O)/C=C/C1=C(Cl)c2ccccc2CC1
3. COC(=O)CCNC(=O)/C=C/C1=C(Cl)c2ccccc2CC1
4. CCC(/C=C/C(=O)N1CCCCC1)=C\c1ccc2c(c1)OCO2
5. COC(=O)[C@H](C)NC(=O)/C=C/C1=C(Cl)c2ccccc2CC1

[3.12, 6.25, 25, 6.25, 25]

// for each molecule in input: emit MEC
1. COC(=O)[C@H](Cc1ccccc1)NC(=O)/C=C/C1=C(Cl)c2ccccc2CC1
2. COC(=O)[C@H](Cc1ccc(O)cc1)NC(=O)/C=C/C1=C(Cl)c2ccccc2CC1

1. 12.5
2. 1.5

###

Please go through the items and note down their inhibition.
Target: Quinolone resistance protein NorA (Staphylococcus aureus)
Experiment: Inhibition of NorA in Staphylococcus aureus 1199B assessed as reduction in ethidium bromide efflux at 50 uM measured after 5 mins by fluorescence assay relative to control
Answers are plain numbers, in %.

COC(=O)C(C)(C)NC(=O)/C=C/C1=C(Cl)c2ccccc2CC1 ... 41.4

Batch: inhibition for all items listed.
1. COC(=O)[C@@H](NC(=O)/C=C/C1=C(Cl)c2ccccc2CC1)C(C)C
2. COC(=O)[C@H](Cc1ccccc1)NC(=O)/C=C/C1=C(Cl)c2ccccc2CC1

1: 67.2; 2: 48

Take each entry in turn and give its inhibition.
1. COC(=O)[C@H]1CCCN1C(=O)/C=C/C1=C(Cl)c2ccccc2CC1
2. CC[C@@H](C)[C@H](NC(=O)/C=C/C1=C(Cl)c2ccccc2CC1)C(=O)OC
3. COC(=O)[C@@H]1CCCN1C(=O)/C=C/C1=C(Cl)c2ccccc2CC1
4. COC(=O)[C@H](CC(C)C)NC(=O)/C=C/C1=C(Cl)c2ccccc2CC1

1. 52.6
2. 58.2
3. 80.3
4. 56.2
